Hello, the source for this data is patent US20240025903A1, in case you need it.

The compounds listed here are annotated with their AUC.
- PROTOCOL: In vivo pharmacokinetics
- Design: species or system Sprague-Dawley rats
- EXPERIMENTAL CONTEXT: both sexes, Sprague-Dawley; rat, IV (tail vein), dose-corrected plasma AUC; read-out: AUC IV

Worked cases, AUC given:
CCC(C)CN1CC2N(Cc3ccc(C(F)(F)F)cc3)CCC(=O)N2[C@@H](C)C1=O (stereo partly shown) : 100 to 999 ng·h/mL
C=CCCN1CC2N(C(=O)c3ccc(C(F)(F)F)cc3)CCC(=O)N2C(C)C1=O (stereo not shown) : 1000 to 3000 ng·h/mL
CCC(C)CN1CC2N(Cc3ccc(OC(F)F)cc3)CCC(=O)N2[C@@H](C)C1=O (stereo partly shown) : 1000 to 3000 ng·h/mL
CCC(C)CN1CC2N(C(=O)c3ccc(F)cc3)CCC(=O)N2C(C)C1=O (stereo not shown) : 1000 to 3000 ng·h/mL
CCC(C)CN1CC2N(C(=O)c3ccc(C(F)(F)F)c(Cl)c3)CCC(=O)N2C(C)C1=O (stereo not shown) : 100 to 999 ng·h/mL
CCC(C)CN1CC2N(Cc3ccc(O)nc3)CCC(=O)N2[C@@H](C)C1=O (stereo partly shown) : > 3000 ng·h/mL
CC1C(=O)N(CC2CCC2)CC2N(C(=O)c3ccc(OC(F)F)cc3)CCC(=O)N12 (stereo not shown) : 1000 to 3000 ng·h/mL
CCC(C)CN1CC2N(C(=O)c3ccc(OC(F)F)cc3)CCC(=O)N2[C@@H](C)C1=O (stereo partly shown) : 1000 to 3000 ng·h/mL
CC1C(=O)N(CCC2CCC2)CC2N(C(=O)c3ccc(C(F)(F)F)cc3)CCC(=O)N12 (stereo not shown) : 1000 to 3000 ng·h/mL

Task: Name the recorded AUC for CCC(C)CN1CC2N(C(=O)c3ccc(C(F)(F)F)cc3)CCC(=O)N2[C@@H](C)C1=O (stereo partly shown) .
Result: 100 to 999 ng·h/mL

###

- PROTOCOL: Oral availability calculation
- Format: in vivo, Sprague-Dawley rats
- EXPERIMENTAL CONTEXT: both sexes, Sprague-Dawley, plasma; rat, dose corrected AUC PO / dose corrected AUC IV x 100
MEASURED PROPERTY: bioavailability

Worked cases, bioavailability given:
CCC(C)CN1CC2N(C(=O)c3ccc(OC(F)F)cc3)CCC(=O)N2[C@@H](C)C1=O (stereo partly shown) [Compound 2a] : 25 to 50%
CCC(C)CN1CC2N(Cc3ccc(OC(F)F)cc3)CCC(=O)N2[C@@H](C)C1=O (stereo partly shown) [Compound 6a] : 1 to 25%
CCC(C)CN1CC2N(C(=O)c3ccc(C(F)(F)F)c(Cl)c3)CCC(=O)N2C(C)C1=O (stereo not shown) [Compound 12] : 25 to 50%
CC1C(=O)N(CC2CCC2)CC2N(C(=O)c3ccc(OC(F)F)cc3)CCC(=O)N12 (stereo not shown) [Compound 14] : > 50%
CCC(C)CN1CC2N(C(=O)c3ccc(F)cc3)CCC(=O)N2C(C)C1=O (stereo not shown) [Compound 11] : 25 to 50%
CC1C(=O)N(CCC2CCC2)CC2N(C(=O)c3ccc(C(F)(F)F)cc3)CCC(=O)N12 (stereo not shown) [Compound 20] : > 50%
CCC(C)CN1CC2N(Cc3ccc(O)nc3)CCC(=O)N2[C@@H](C)C1=O (stereo partly shown) [Compound 7a] : < 1%
C=CCCN1CC2N(C(=O)c3ccc(C(F)(F)F)cc3)CCC(=O)N2C(C)C1=O (stereo not shown) [Compound 22] : 25 to 50%
CCC(C)CN1CC2N(Cc3ccc(C(F)(F)F)cc3)CCC(=O)N2[C@@H](C)C1=O (stereo partly shown) [Compound 5a] : 1 to 25%

Task: Name the recorded bioavailability for CCC(C)CN1CC2N(C(=O)c3ccc(C(F)(F)F)cc3)CCC(=O)N2[C@@H](C)C1=O (stereo partly shown) [Compound 1a] .
Result: 25 to 50%
